- Test system: MOLM14
- Test Method Notes: cell viability relative to vehicle control; higher = less cytotoxic;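 further: after 48 h exposure read by CellTiter-Glo luminescence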
- Run Conditions: 10 µM; SRSF2 genotype: SRSF2 wt/wt
Measurement Kind: cell viability (%)
Respond with the bare value in %.

Before answering, review these 3 worked examples.
Molecule | Test System | Unit Abbreviation | Assay Result
C=CC(C)(O)CCC=C(C)C (centres undefined) [Linalool] | MOLM14 | % | 104
Cc1cc(O)c(-c2ccc([C@@H](C)CN(C)C)cc2)c2c1[nH]c(=O)c1sccc12 | MOLM14 | % | 0.22
CO[C@]1(CC[C@@H](C)CO[C@@H]2O[C@H](CO)[C@@H](O)[C@H](O)[C@H]2O)O[C@H]2C[C@H]3[C@@H]4CC=C5C[C@@H](O[C@@H]6O[C@H](CO)[C@@H](O[C@@H]7O[C@@H](C)[C@H](O)[C@@H](O)[C@H]7O)[C@H](O)[C@H]6O[C@@H]6O[C@@H](C)[C@H](O)[C@@H](O)[C@H]6O)CC[C@]5(C)[C@H]4CC[C@]3(C)[C@H]2[C@@H]1C [Methylprotodioscin] | MOLM14 | % | 0.56

For the record C#C[C@]1(O)CC[C@H]2[C@@H]3CCC4=CC(=O)CC[C@@H]4[C@H]3C(=C)C[C@@]21CC [Etonogestrel] , what value of cell viability is listed for MOLM14? 89.9

For the record COc1cc2ncnc(Nc3cccc(Cl)c3)c2cc1OC [AG-1478 (Tyrphostin AG-1478)] , what value of cell viability is listed for MOLM14? 67.6

For the record CCOC(=O)C1=C(C)NC(C)=C(C(=O)OCC)C1 [Diludine] , what value of cell viability is listed for MOLM14? 99.3

For the record CCCC(CCC)C(=O)O[C@H]1C[C@H]2CC[C@@H](C1)[N+]2(C)C [anisotropine methylbromide] , what value of cell viability is listed for MOLM14? 101

For the record CC(C)OC(=O)[C@H](C)N[P@](=O)(OC[C@H]1O[C@@H](n2ccc(=O)[nH]c2=O)[C@](C)(F)[C@@H]1O)Oc1ccccc1 [Sofosbuvir(PSI-7977)] , what value of cell viability is listed for MOLM14? 107

For the record CC(=O)Nc1ccc(C(=O)Nc2ccccc2N)cc1 [CI994 (Tacedinaline)] , what value of cell viability is listed for MOLM14? 25.8

* * *

Below, each entry is listed with its recorded cell viability.
- Test system: MARIMO
- Test Method Notes: cell viability relative to vehicle control; higher = less cytotoxic
- Run Conditions: 10 µM; SRSF2 genotype: SRSF2 wt/wt
Where a name gives a salt, the structure may show the parent alone.
Respond with the bare value in %.

Before answering, review these 4 worked examples.
Molecule | Test System | cell viability / %
Oc1ccc2ccccc2c1SSc1c(O)ccc2ccccc12 | MARIMO | 29.7
CO/N=C(\C(=O)N[C@@H]1C(=O)N2C(C(=O)[O-])=C(C[N+]3(C)CCCC3)CS[C@H]12)c1csc(N)n1 [Cefepime Dihydrochloride Monohydrate] | MARIMO | 109
COC1C(O)CC(=O)OC(C)CC=CC=CC(OC2CCC(N(C)C)C(C)O2)C(C)CC(CC=O)C1OC1OC(C)C(OC2CC(C)(O)C(O)C(C)O2)C(N(C)C)C1O (configuration not stated) | MARIMO | 102
C#C[C@]1(O)CC[C@H]2[C@@H]3CCc4cc(O)ccc4[C@H]3CC[C@@]21C | MARIMO | 70

For the record O=C(Nc1cccc(Cl)c1)Nc1ncc(CCNc2ncnc3ccsc23)s1 [SNS-314 Mesylate] , what value of cell viability is listed for MARIMO? 76.5

For the record C=C1CCC2C(C)(CO)C(O)CCC2(C)C1CC=C1C=COC1=O (configuration not stated) [Dehydroandrographolide] , what value of cell viability is listed for MARIMO? 96.3

For the record N#Cc1ccc(-c2c(-c3ncn[nH]3)sc(N3CCOCC3)c2C#N)c(F)c1 , what value of cell viability is listed for MARIMO? 39

For the record O=C(Nc1ncc(SCCN2CCCC2)s1)[C@]1(c2ccc(S(=O)(=O)C3CC3)cc2)C[C@H]1C1CCCCC1 , what value of cell viability is listed for MARIMO? 11.5

For the record CC12CC3CC(C)(C1)CC(N)(C3)C2 [Memantine hydrochloride (Namenda)] , what value of cell viability is listed for MARIMO? 98.8

For the record Cc1cc(Nc2ncc(Cl)c(Nc3ccccc3S(=O)(=O)C(C)C)n2)c(OC(C)C)cc1C1CCNCC1 , what value of cell viability is listed for MARIMO? 0.23

For the record O=C1c2cccc(O)c2C(=O)c2c(O)cc(CO)cc21 , what value of cell viability is listed for MARIMO? 94.8

For the record O=C(O)COc1nn(Cc2ccccc2)c2ccccc12 , what value of cell viability is listed for MARIMO? 111

For the record Cn1c(=O)c(F)c(Nc2ccc(I)cc2F)c2c(=O)n(C[C@@H](O)CO)cnc21 , what value of cell viability is listed for MARIMO? 36.3

For the record Cc1cc(SCc2sc(-c3ccc(C(F)(F)F)cc3)nc2C)ccc1OCC(=O)O , what value of cell viability is listed for MARIMO? 103

For the record O[C@H]1[C@H]2c3cc4c(cc3CN3CCC(=C[C@@H]1O)[C@H]23)OCO4 [Lycorine hydrochloride] , what value of cell viability is listed for MARIMO? 21

For the record CN(C)CCC=C1c2ccccc2C(C)(C)c2ccccc21 [Melitracen hydrochloride] , what value of cell viability is listed for MARIMO? 69.7

For the record COc1cc(Nc2ncc(F)c(Nc3ccc4c(n3)NC(=O)C(C)(C)O4)n2)cc(OC)c1OC [R406(free base)] , what value of cell viability is listed for MARIMO? 85.1
